- system: Stimulator of interferon genes protein (Homo sapiens, UniProt Q86WV6, G230A/R293Q)
- Sequence (Q86WV6 whole entry G230A/R293Q): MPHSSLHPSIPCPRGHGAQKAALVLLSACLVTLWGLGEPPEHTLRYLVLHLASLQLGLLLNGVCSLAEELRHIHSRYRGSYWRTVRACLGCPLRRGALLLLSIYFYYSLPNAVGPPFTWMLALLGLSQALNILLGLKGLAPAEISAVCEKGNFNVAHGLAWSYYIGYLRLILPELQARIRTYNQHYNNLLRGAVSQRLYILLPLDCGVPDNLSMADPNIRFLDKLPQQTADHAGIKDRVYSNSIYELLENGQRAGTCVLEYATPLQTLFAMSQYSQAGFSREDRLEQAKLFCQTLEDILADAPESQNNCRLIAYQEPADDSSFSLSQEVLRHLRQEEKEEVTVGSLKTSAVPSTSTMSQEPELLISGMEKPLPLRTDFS
- procedure summary: Activation of recombinant human STING haplotype G230A/R293Q mutant expressed in 293T cells measured after 30 mins in presence of digitonin A by bright Glo-luciferase reporter gene assay
reported endpoint: pEC50
Please keep in mind that pEC50 is minus log10 of the molar concentration; only the number is needed.

[ask] Identify measured pEC50 corresponding to `Nc1nc2c(ncn2[C@@H]2O[C@@H]3COP(=O)(O)O[C@@H]4[C@H](O)[C@@H](COP(=O)(O)O[C@@H]2[C@@H]3O)O[C@H]4n2cnc3c(N)ncnc32)c(=O)[nH]1`
[reply] 7.52

[ask] Report pEC50 for `Nc1nc2c(ncn2[C@@H]2O[C@@H]3COP(=O)(O)O[C@H]4C[C@H](n5cnc6c(N)nc(Cl)nc65)O[C@@H]4COP(=O)(O)O[C@@H]2[C@@H]3O)c(=O)[nH]1`
[reply] 7.05

[ask] Return value of pEC50 for input `Nc1nc2c(ccn2[C@@H]2O[C@@H]3COP(=O)(O)O[C@H]4[C@@H](O)[C@H](n5cnc6c(N)ncnc65)O[C@@H]4COP(=O)(O)O[C@@H]2[C@@H]3O)c(=O)[nH]1` , no commentary.
[reply] 7.22

[ask] Report pEC50, nothing else, for this molecule: `CSc1ncnc2c1ncn2[C@@H]1O[C@@H]2COP(=O)(O)O[C@@H]3[C@H](O)[C@@H](COP(=O)(O)O[C@H]2[C@H]1O)O[C@H]3n1cnc2c(=O)[nH]c(N)nc21`
[reply] 7.22

[ask] Name the recorded pEC50 of the molecule listed here: `Nc1nc2c(ncn2[C@@H]2O[C@@H]3COP(=O)(O)O[C@H]4[C@H](O)[C@H](n5cnc6c(N)nc(F)nc65)O[C@@H]4COP(=O)(O)O[C@@H]2[C@@H]3O)c(=O)[nH]1`
[reply] 7.22

[ask] Please supply the value of reported pEC50 for the item `NC(=O)c1ncn([C@@H]2O[C@@H]3COP(=O)(O)O[C@@H]4[C@H](O)[C@@H](COP(=O)(O)O[C@H]3[C@H]2O)O[C@H]4n2cnc3c(=O)[nH]c(N)nc32)c1N`
[reply] 6.68

[ask] State its pEC50: `Nc1nc2c(ncn2[C@@H]2O[C@@H]3CO[P@](=O)(O)O[C@H]4[C@@H](O)[C@H](n5cnc6c(=O)[nH]c(N)nc65)O[C@@H]4CO[P@](=O)(O)O[C@H]3[C@H]2O)c(=O)[nH]1`
[reply] 5.96

[ask] Return the recorded pEC50 value; entry: `Cn1c(N)nc2c(ncn2[C@@H]2O[C@@H]3COP(=O)(O)O[C@H]4[C@@H](O)[C@H](n5cnc6c(N)ncnc65)O[C@@H]4COP(=O)(O)O[C@@H]2[C@@H]3O)c1=O`
[reply] 7.40

[ask] Give the reported value of pEC50 for this record: `Nc1nc2c(ncn2[C@@H]2O[C@@H]3COP(=O)(O)O[C@H]4[C@@H](N)[C@H](n5cnc6c(N)ncnc65)O[C@@H]4COP(=O)(O)O[C@@H]2[C@@H]3O)c(=O)[nH]1`
[reply] 7.70

[ask] // Input: `Nc1nc2c(ncn2[C@@H]2O[C@@H]3COP(=O)(O)O[C@H]4[C@@H](O)[C@H](n5cnc6c(=O)[nH]cnc65)O[C@@H]4COP(=O)(O)O[C@@H]2[C@@H]3O)c(=O)[nH]1` . Output its pEC50 only.
[reply] 6.85

[ask] // fetch pEC50 given entry `Nc1nc(N)c2ncn([C@@H]3O[C@@H]4COP(=O)(O)O[C@@H]5[C@H](O)[C@@H](COP(=O)(O)O[C@H]4[C@H]3F)O[C@H]5n3cnc4c(=O)[nH]c(N)nc43)c2n1`
[reply] 7.52

[ask] Please report the measured pEC50 for `Nc1nc2c(ncn2[C@@H]2O[C@@H]3COP(=O)(O)O[C@H]4[C@@H](F)[C@H](n5cnc6c(N)nc(F)nc65)O[C@@H]4COP(=O)(O)O[C@@H]2[C@@H]3O)c(=O)[nH]1`
[reply] 7.52

[ask] Read the entry `Nc1ncnc2c1ncn2[C@@H]1O[C@@H]2COP(=O)(O)O[C@H]3[C@@H](O)[C@H](n4cnc5c(N)ncnc54)O[C@@H]3COP(=O)(O)O[C@H]2[C@H]1O` and write its reported pEC50.
[reply] 6.70

[ask] Specify measured pEC50 for `Nc1nc2c([C@@H]3O[C@@H]4COP(=O)(O)O[C@H]5[C@@H](O)[C@H](n6cnc7c(N)ncnc76)O[C@@H]5COP(=O)(O)O[C@@H]3[C@@H]4O)scc2c(=O)[nH]1` .
[reply] 7.30

[ask] Answer with the recorded pEC50 for the molecule listed here: `CSc1nc(N)nc2c1ncn2[C@@H]1O[C@@H]2COP(=O)(O)O[C@@H]3[C@H](O)[C@@H](COP(=O)(O)O[C@H]2[C@H]1O)O[C@H]3n1cnc2c(=O)[nH]c(N)nc21`
[reply] 6.62

[ask] Give a short answer stating reported pEC50 for Nc1nc2c(ncn2[C@@H]2O[C@@H]3COP(=O)(S)O[C@H]4[C@@H](O)[C@H](n5cnc6c(N)ncnc65)O[C@@H]4COP(=O)(O)O[C@@H]2[C@@H]3O)c(=O)[nH]1 (stereo partly drawn) .
[reply] 6.92

[ask] Given `CNc1ncnc2c1ncn2[C@@H]1O[C@@H]2COP(=O)(O)O[C@@H]3[C@H](O)[C@@H](COP(=O)(O)O[C@H]2[C@H]1O)O[C@H]3n1cnc2c(=O)[nH]c(N)nc21` , respond with its pEC50.
[reply] 7.22

[ask] Give the reported pEC50 for this molecule. `NC(=O)c1ncn([C@@H]2O[C@@H]3COP(=O)(O)O[C@H]4[C@@H](O)[C@H](n5cnc6c(N)ncnc65)O[C@@H]4COP(=O)(O)O[C@@H]2[C@@H]3O)c1N`
[reply] 6.38

[ask] Provide measured pEC50 value, entry: `Nc1nc2c(ncn2[C@@H]2O[C@@H]3COP(=O)(O)O[C@H]4[C@@H](O)[C@H](n5cnc6c(O)nc(O)nc65)O[C@@H]4COP(=O)(O)O[C@@H]2[C@@H]3O)c(=O)[nH]1`
[reply] 5.70

[ask] Quote pEC50 reported for `Nc1nc2c(ncn2[C@@H]2O[C@@H]3COP(=O)(O)O[C@H]4[C@@H](O)[C@H](n5nnc6c(N)ncnc65)O[C@@H]4COP(=O)(O)O[C@@H]2[C@@H]3O)c(=O)[nH]1` please.
[reply] 6.68

[ask] Give me measured pEC50, please, for this molecule: `Nc1ncc2ncn([C@@H]3O[C@@H]4COP(=O)(O)O[C@@H]5[C@H](O)[C@@H](COP(=O)(O)O[C@H]4[C@H]3O)O[C@H]5n3cnc4c(=O)[nH]c(N)nc43)c2n1`
[reply] 7.40

[ask] Check the records and state pEC50 for `Nc1nc2c(ncn2[C@@H]2O[C@@H]3COP(=O)(O)O[C@H]4C[C@H](n5cnc6c(N)nc(F)nc65)O[C@@H]4COP(=O)(O)O[C@@H]2[C@@H]3F)c(=O)[nH]1`
[reply] 6.77

[ask] Read the entry `Nc1nc2c(ncn2[C@@H]2O[C@@H]3COP(=O)(O)O[C@H]4[C@@H](O)[C@H](n5cnc6c(=S)[nH]cnc65)O[C@@H]4COP(=O)(O)O[C@@H]2[C@@H]3O)c(=O)[nH]1` and write its reported pEC50.
[reply] 6.82
